Test: Human pharmacokinetics in plasma and CSF (proof of mechanism study, MCI patients)
Type: in vivo
Conditions: human, plasma, po, read-out: half-life in human plasma (converted)
ENDPOINT_LABEL: half-life

So for CN1CC[C@]2(C)c3cc(OC(=O)Nc4ccccc4)ccc3N(C)C12 (stereo partly shown) , the logged half-life turned out to be ~5 h

* * *

Test: Human pharmacokinetics in plasma and CSF (proof of mechanism study, MCI patients)
Assay type: in vivo
Settings: human, CSF, po, read-out: half-life in human CSF (converted)
ENDPOINT_LABEL: half-life

So for CN1CC[C@]2(C)c3cc(OC(=O)Nc4ccccc4)ccc3N(C)C12 (stereo partly shown) [Compound (1)] , the logged half-life turned out to be ~12 h
